- System: Fer (mouse);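 further: 11-residue human phosphosite peptides and single-mutation variants displayed on the E. coli surface, counted by deep sequencing, each peptide's frequency after selection divided by its frequency in the unselected input library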;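 further: frequency after pTyr selection over input frequency; kinase dosed for 20-30% of maximal phosphorylation in three min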
- ASSAY_COMMENT: phosphorylation enrichment, bacterial display (enrichment ratio); higher = better substrate or ligand; peptides without Tyr show the background
RECORDED_ENDPOINT: phosphorylation enrichment

{"INPUT_SEQUENCE": "TEDPEYDVQSK [PTCHD3_Y335]", "RESULT": 0.564}
{"INPUT_SEQUENCE": "WQQQSYLFSGI [CTNNB1_Y30_D32Y_YF]", "RESULT": 0.398}
{"INPUT_SEQUENCE": "FADIAYNFRQG [PAH_Y166_H170Q_YF]", "RESULT": 0.35}
{"INPUT_SEQUENCE": "KKMKCYHVGKV [HARS2_Y151_R150C]", "RESULT": 0.356}
